These measurements were taken from patent US7923465B2.

Below, each of the compounds is paired with its reported inhibition at 0.3 µM value.
# SYSTEM: hCB2 (Homo sapiens)
# Sequence (P34972 whole entry): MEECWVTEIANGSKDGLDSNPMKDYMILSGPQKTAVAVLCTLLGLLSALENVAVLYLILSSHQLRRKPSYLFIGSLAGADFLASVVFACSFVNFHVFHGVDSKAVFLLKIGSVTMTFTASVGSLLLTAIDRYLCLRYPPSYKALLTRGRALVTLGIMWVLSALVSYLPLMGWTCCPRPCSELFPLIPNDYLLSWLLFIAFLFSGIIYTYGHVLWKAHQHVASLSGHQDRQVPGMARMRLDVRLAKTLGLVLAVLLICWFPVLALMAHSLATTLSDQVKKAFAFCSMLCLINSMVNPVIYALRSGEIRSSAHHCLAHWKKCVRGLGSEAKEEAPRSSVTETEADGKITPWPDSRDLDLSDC
# PROTOCOL DESCRIPTION: In vitro binding assay using hCB2-CHO membranes, [3H]-CP-55,940 displacement (Protocol IV)
# Parameters: expressed in transfected cells; host or cells: CHO (hCB2-CHO, generated in-house)
# MEASUREMENT CONDITIONS: 1 h; hCB2-CHO membranes, [3H]-CP-55,940 displacement; read-out: % Displacement Protocol IV
OBSERVATION TYPE: inhibition at 0.3 µM (%)

{"COMPOUND": "O=C(NCc1ccc(Cl)cc1Cl)c1nn(-c2ccc(Cl)cc2)c2c1C1CCC2C1 (centres unmarked)", "READOUT UNITS": "%", "REPORTED MEASUREMENT": 59.5}
{"COMPOUND": "O=C(NC1CCCCC1)c1nn(-c2ccc(Br)cc2)c2c1C1CCC2C1 (centres unmarked)", "READOUT UNITS": "%", "REPORTED MEASUREMENT": 72.3}
{"COMPOUND": "CC(C)(NC(=O)c1nn(-c2ccc(Cl)cc2Cl)c2c1C1CCC2c2ccccc21)c1ccccc1 (centres unmarked)", "READOUT UNITS": "%", "REPORTED MEASUREMENT": 67.7}
{"COMPOUND": "O=C(NCc1ccccc1Cl)c1nn(-c2ccc(F)cc2F)c2c1C1CCC2C1 (centres unmarked)", "READOUT UNITS": "%", "REPORTED MEASUREMENT": 70.3}
{"COMPOUND": "O=C(Nc1cccc(Br)c1)c1n[nH]c2c1C1(c3ccc(Cl)cc3)CCC2C1 (centres unmarked)", "READOUT UNITS": "%", "REPORTED MEASUREMENT": 10.7}
{"COMPOUND": "O=C(NCc1ccc(F)cc1)c1nn(-c2ccc(Cl)cc2Cl)c2c1C1CC3CC(C1)CC2C3", "READOUT UNITS": "%", "REPORTED MEASUREMENT": 25.1}
{"COMPOUND": "CN1CCN(NC(=O)c2nn(-c3ccc(F)cc3F)c3c2C2CCC3C2)CC1 (centres unmarked)", "READOUT UNITS": "%", "REPORTED MEASUREMENT": 31}
{"COMPOUND": "O=C(NNc1ccccc1)c1nn(-c2ccccc2Br)c2c1C1CCC2C1 (centres unmarked)", "READOUT UNITS": "%", "REPORTED MEASUREMENT": 26.2}
